B1: VH:VL chains; a variant is named by its letters at X, in order (parent)
chain 1: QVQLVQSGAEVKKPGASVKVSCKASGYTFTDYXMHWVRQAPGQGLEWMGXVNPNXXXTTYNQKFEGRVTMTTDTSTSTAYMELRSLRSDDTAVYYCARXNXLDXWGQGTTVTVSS
chain 2: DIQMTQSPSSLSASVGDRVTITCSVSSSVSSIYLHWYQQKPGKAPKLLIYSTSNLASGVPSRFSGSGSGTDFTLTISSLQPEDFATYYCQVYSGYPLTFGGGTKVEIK

- Variants of: B1
- TEST SUMMARY: yeast display scFab, FACS + sequencing
- TEST CONDITIONS: with MET
This is one part of the list. How many sequences the whole screen found active is unknown.
ATTRIBUTE MEASURED: antigen binding call

Here are 5 variants together with their reported answers.
   mutant_label    attribute_measured  measured_value
0      VKGKGDWV  antigen binding call      no binding
1      YAEGASSF  antigen binding call      no binding
2      VGGTSSSA  antigen binding call      no binding
3      VKGRADWV  antigen binding call      no binding
4      FAGGGFAV  antigen binding call      no binding

Prompt: Request the reported antigen binding call associated with `DEGTGALA`
Response: no binding

Prompt: Request the reported antigen binding call associated with `YRKGAASD`
Response: binds

Prompt: Request the reported antigen binding call associated with `DAARGAGD`
Response: no binding
